# EXPERIMENT: growth suppression of PTEN-deleted HCT116, pilot screen, cell-based, HCT116 clonal line, CellTiter-Glo (AID 824)
# CONDITION INFO: 60 h, at 10 µM, hits give low values
Records with an inconclusive call do not appear.
Exam item: assign satisfied to entries whose viability is below 90% and not satisfied to entries at or above 90%. Note that a value of exactly 90% receives not satisfied.

In [3]: df
Out[3]:
                                   compound  classification
0  CCOC(=O)c1ccc(NC(=O)C2CCN(S(=O)(=O)c3ccccc3)CC2)cc1       satisfied
1   CCOC(=O)c1[nH]c2ccccc2c1NC(=O)CC(C)(C)C   not satisfied
2  C=CCOC(=O)C1=C(C)N=C2SCCC(=O)N2C1c1ccc(OC(=O)c2ccco2)cc1 (stereo not drawn)       satisfied
3  CCOc1ccc(NC(=O)CCS(=O)(=O)c2cccc3nsnc23)cc1   not satisfied
4  CCOC(=O)c1ccc(Nc2ccc(-c3ccc(OC)c(OC)c3)nn2)cc1       satisfied

Request: I'd appreciate it if you could check whether COc1cccc(C2c3c(oc4ccccc4c3=O)C(=O)N2CCCN2CCOCC2)c1 (stereo not drawn) has viability smaller than 90%.
Result: not satisfied

Request: I'd appreciate it if you could check whether C=CCOc1cccc(C2c3c(oc4ccccc4c3=O)C(=O)N2c2ccccn2)c1 (stereo not drawn) has viability smaller than 90%.
Result: satisfied

Request: I'd appreciate it if you could check whether CC(=O)N1CCN(c2ccc(NCc3ccc(C)s3)cc2)CC1 has viability smaller than 90%.
Result: not satisfied

Request: I'd appreciate it if you could check whether CC(=O)NCC(=O)OCC(=O)c1ccc(C)cc1 has viability smaller than 90%.
Result: not satisfied

Request: I'd appreciate it if you could check whether Cc1c(C(=O)NCc2cccnc2)oc2ccc(S(=O)(=O)N3CC(C)CC(C)C3)cc12 (stereo not drawn) has viability smaller than 90%.
Result: satisfied

Request: I'd appreciate it if you could check whether CC(=O)Nc1sc(N)nc1-c1ccccc1 has viability smaller than 90%.
Result: not satisfied

Request: I'd appreciate it if you could check whether Cc1ccc(/C(O)=C2/C(=O)C(=O)N(CCN3CCOCC3)C2c2cccnc2)cc1 (stereo not drawn) has viability smaller than 90%.
Result: not satisfied

Request: I'd appreciate it if you could check whether NS(=O)(=O)c1ccc(CNC(=O)NC2(c3ccccc3)CC2)cc1 has viability smaller than 90%.
Result: satisfied

Request: I'd appreciate it if you could check whether CCN(CC)S(=O)(=O)c1ccc(C(=O)OCCN2C(=O)CCC2=O)cc1 has viability smaller than 90%.
Result: not satisfied

Request: I'd appreciate it if you could check whether CN1CCN(S(=O)(=O)c2cccc(S(=O)(=O)c3ccc(Cl)c(Cl)c3)c2)CC1 has viability smaller than 90%.
Result: satisfied

Request: I'd appreciate it if you could check whether CCOC(=O)N1CCN(C(=O)Cc2ccc(Cl)cc2)CC1 has viability smaller than 90%.
Result: not satisfied

Request: I'd appreciate it if you could check whether COCCn1c(SCC(=O)NCC2CCCO2)nc2c(c1=O)SC(C)C2 (stereo not drawn) has viability smaller than 90%.
Result: not satisfied
